target: HLA-A*02:01 class I complex (biotinylated heavy chain with beta2-microglobulin) (human); assay: UV peptide exchange + HLA class I ELISA; % of Pos control peptide; conditions: remark: other sources report otherwise
Reported exchange rate with Pos peptide values for the following binders.
Write the answer as a number in %, unit excluded.

Reference set, count: 2
// returns reported exchange rate with Pos peptide for input IVWWCPMSR (here or on the partner: biotinylated heavy chain) [P98 9-mer neoantigen peptide … (TP53 (R213D) frameshift)]
7.9

// returns reported exchange rate with Pos peptide for input IPVLTRWPL (here or on the partner: biotinylated heavy chain) [P19 9-mer neoantigen peptide … (TMEM222-LOC644961 fusion)]
8.2

Next, consider the following binder.
// returns reported exchange rate with Pos peptide for input YLRRQKRLK (here or on the partner: biotinylated heavy chain) [P60 9-mer neoantigen peptide … (FOXA1.p.F266L missense)]
7.9
